Target: NanoLuc-CRBN fusion (Homo sapiens, UniProt Q96SW2)
Sequence (Q96SW2 whole entry, the tested form may be a part): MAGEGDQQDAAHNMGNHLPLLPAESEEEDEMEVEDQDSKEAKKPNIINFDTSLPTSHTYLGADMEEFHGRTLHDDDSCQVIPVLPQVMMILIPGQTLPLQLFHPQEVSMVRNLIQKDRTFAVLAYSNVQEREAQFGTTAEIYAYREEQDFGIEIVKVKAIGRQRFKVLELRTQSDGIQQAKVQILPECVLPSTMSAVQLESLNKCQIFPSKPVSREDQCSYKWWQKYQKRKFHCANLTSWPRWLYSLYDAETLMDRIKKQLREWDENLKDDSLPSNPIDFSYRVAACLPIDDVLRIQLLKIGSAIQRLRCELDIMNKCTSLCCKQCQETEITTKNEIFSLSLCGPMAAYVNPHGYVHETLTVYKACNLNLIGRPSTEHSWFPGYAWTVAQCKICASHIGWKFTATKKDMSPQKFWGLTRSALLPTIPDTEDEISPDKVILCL
Sequence (Q16531 whole entry partner, the tested form may be a part): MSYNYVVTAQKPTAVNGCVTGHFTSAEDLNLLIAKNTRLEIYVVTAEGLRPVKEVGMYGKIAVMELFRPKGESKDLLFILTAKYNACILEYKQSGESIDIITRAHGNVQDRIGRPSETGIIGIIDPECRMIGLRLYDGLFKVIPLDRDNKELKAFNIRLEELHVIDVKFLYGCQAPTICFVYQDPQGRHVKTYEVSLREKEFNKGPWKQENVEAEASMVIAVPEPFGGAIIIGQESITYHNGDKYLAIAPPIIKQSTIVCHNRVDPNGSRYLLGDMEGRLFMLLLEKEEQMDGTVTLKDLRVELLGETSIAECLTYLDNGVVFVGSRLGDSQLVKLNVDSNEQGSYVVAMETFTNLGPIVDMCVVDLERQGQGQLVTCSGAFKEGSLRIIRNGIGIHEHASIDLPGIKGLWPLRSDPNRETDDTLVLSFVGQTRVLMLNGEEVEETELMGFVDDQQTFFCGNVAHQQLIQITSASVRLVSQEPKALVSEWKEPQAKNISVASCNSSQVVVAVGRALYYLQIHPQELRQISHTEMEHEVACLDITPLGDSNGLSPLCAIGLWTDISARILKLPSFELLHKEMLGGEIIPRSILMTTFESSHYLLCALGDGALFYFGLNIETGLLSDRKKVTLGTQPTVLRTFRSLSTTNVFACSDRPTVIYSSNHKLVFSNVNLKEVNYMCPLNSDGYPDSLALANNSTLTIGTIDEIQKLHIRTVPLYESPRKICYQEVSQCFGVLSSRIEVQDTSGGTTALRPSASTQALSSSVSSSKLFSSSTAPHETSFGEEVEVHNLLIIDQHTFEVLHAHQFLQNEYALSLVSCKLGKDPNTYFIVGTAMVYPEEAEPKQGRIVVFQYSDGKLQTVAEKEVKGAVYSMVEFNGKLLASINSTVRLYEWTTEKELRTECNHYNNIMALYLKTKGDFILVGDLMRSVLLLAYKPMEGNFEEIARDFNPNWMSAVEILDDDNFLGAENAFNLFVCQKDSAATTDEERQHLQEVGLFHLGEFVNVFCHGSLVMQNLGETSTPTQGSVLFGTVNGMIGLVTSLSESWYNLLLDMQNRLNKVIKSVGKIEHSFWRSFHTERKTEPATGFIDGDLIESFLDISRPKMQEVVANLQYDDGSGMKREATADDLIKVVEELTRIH
Test: NanoBRET CRBN in-cell target engagement assay
Conditions: HEK-293 cells, CRBN tracer 0.5 µM; triplicates; read-out: CRBN target engagement IC50,TE
Each entry below carries its recorded IC50.
parameter: IC50

{"compound": "CN(CCCNC(=O)CNc1cccc2c1C(=O)N(C1CCC(=O)NC1=O)C2=O)C(C)(C)C=C(C#N)C(=O)N1CCC[C@@H](n2nc(-c3ccc(Oc4ccccc4)cc3)c3c(N)ncnc32)C1 (stereo partly drawn)", "parameter": "IC50", "endpoint_result": "250 nM"}
{"compound": "CN(CC=CC(=O)N1CCCC(n2nc(-c3ccc(Oc4ccccc4)cc3)c3c(N)ncnc32)C1)CCCNC(=O)CNc1cccc2c1C(=O)N(C1CCC(=O)NC1=O)C2=O (stereo not drawn)", "parameter": "IC50", "endpoint_result": "860 nM"}
{"compound": "CCCNc1nc(Nc2ccc(C#N)cc2)ncc1C#CCCCNC(=O)[C@H](C)N(C)C(=O)CCCN(C)CCCNC(=O)CCNc1cccc2c1C(=O)N(C1CCC(=O)NC1=O)C2=O (stereo partly drawn)", "parameter": "IC50", "endpoint_result": "10100 nM"}
{"compound": "CCCNc1nc(Nc2ccc(C#N)cc2)ncc1C#CCCCNC(=O)[C@H](C)N(C)C(=O)/C=C/CN(C)CCCNC(=O)CCNc1cccc2c1C(=O)N(C1CCC(=O)NC1=O)C2=O (stereo partly drawn)", "parameter": "IC50", "endpoint_result": "1500 nM"}
{"compound": "CCCNc1nc(Nc2ccc(C#N)cc2)ncc1C#CCCCNC(=O)[C@H](C)N(C)C(=O)/C(C#N)=C/C(C)(C)N(C)CCCNC(=O)CCNc1cccc2c1C(=O)N(C1CCC(=O)NC1=O)C2=O (stereo partly drawn)", "parameter": "IC50", "endpoint_result": "300 nM"}
{"compound": "CN(CCCNC(=O)CNc1cccc2c1C(=O)N(C1CCC(=O)NC1=O)C2=O)CCCC(=O)N1CCCC(n2nc(-c3ccc(Oc4ccccc4)cc3)c3c(N)ncnc32)C1 (stereo not drawn)", "parameter": "IC50", "endpoint_result": "1690 nM"}

###

Target: truncated Cereblon protein (Homo sapiens, UniProt Q96SW2)
Assay: CRBN binding assay (fluorescence quenching)
Settings: truncated Cereblon protein; fluorescence quenching; triplicates; read-out: Kd
pKd: −log10 of the molar value.
The entries below come with measured pKd values attached.

{"molecule": "CN(CC=CC(=O)N1CCCC(n2nc(-c3ccc(Oc4ccccc4)cc3)c3c(N)ncnc32)C1)CCCNC(=O)CNc1cccc2c1C(=O)N(C1CCC(=O)NC1=O)C2=O (centres unmarked)", "pKd": 5.82}
{"molecule": "CN(CCCNC(=O)CNc1cccc2c1C(=O)N(C1CCC(=O)NC1=O)C2=O)CCCC(=O)N1CCCC(n2nc(-c3ccc(Oc4ccccc4)cc3)c3c(N)ncnc32)C1 (centres unmarked)", "pKd": 5.74}

###

Target: BTK (Homo sapiens)
Sequence (Q06187 whole entry): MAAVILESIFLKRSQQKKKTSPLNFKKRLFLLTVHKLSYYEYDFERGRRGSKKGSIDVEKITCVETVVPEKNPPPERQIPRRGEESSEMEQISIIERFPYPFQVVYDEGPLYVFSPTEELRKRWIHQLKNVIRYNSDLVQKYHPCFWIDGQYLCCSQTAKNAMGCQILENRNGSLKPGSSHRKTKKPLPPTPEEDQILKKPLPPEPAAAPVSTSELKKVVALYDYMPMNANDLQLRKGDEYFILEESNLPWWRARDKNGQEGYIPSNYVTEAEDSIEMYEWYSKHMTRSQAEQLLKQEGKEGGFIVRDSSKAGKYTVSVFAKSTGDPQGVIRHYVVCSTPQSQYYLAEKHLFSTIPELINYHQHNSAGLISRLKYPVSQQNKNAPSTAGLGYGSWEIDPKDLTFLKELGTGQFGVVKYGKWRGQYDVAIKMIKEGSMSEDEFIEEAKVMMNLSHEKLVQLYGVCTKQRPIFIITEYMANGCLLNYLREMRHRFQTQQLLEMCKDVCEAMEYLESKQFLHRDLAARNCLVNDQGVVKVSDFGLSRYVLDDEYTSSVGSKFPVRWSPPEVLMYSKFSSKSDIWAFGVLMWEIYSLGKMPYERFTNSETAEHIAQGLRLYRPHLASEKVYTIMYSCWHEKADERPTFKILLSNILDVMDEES
Experiment: In vitro BTK kinase assay (PhosphoSens)
Type: biochemical
Parameters: purchased SignalChem B10-10H-10
Details: Supplementary Figure 5; drug concentration 40000 pM; replicates; read-out: Inhibition(%)
Entries annotated with measured activity at 0.04 µM

{"compound": "CC(C)(C)C=C(C#N)C(=O)N1CCCC(n2nc(-c3ccc(Oc4ccccc4)cc3)c3c(N)ncnc32)C1 (centres unmarked)", "activity at 0.04 µM": "4.68%"}
{"compound": "CN1C(=O)CCC(N2C(=O)c3cccc(NCC(=O)NCCCN(C)C(C)(C)C=C(C#N)C(=O)N4CCCC(n5nc(-c6ccc(Oc7ccccc7)cc6)c6c(N)ncnc65)C4)c3C2=O)C1=O (centres unmarked)", "activity at 0.04 µM": "10.5%"}
{"compound": "CN(CCCNC(=O)CNc1cccc2c1C(=O)N(C1CCC(=O)NC1=O)C2=O)C(C)(C)C=C(C#N)C(=O)N1CCC[C@@H](n2nc(-c3ccc(Oc4ccccc4)cc3)c3c(N)ncnc32)C1 (some centres unmarked)", "activity at 0.04 µM": "3.46%"}
{"compound": "CCC(=O)N1CCCC(n2nc(-c3ccc(Oc4ccccc4)cc3)c3c(N)ncnc32)C1 (centres unmarked)", "activity at 0.04 µM": "29.6%"}
{"compound": "CN(CCCNC(=O)CNc1cccc2c1C(=O)N(C1CCC(=O)NC1=O)C2=O)CCCC(=O)N1CCCC(n2nc(-c3ccc(Oc4ccccc4)cc3)c3c(N)ncnc32)C1 (centres unmarked)", "activity at 0.04 µM": "32.2%"}
